Experimental Target: IGF1R (Homo sapiens)
Construct: 6×His- or GST-tagged kinase domain fragments of the corresponding RTKs expressed in baculovirus system; host or cells: baculovirus system
Sequence (P08069 999-1274 limits assumed): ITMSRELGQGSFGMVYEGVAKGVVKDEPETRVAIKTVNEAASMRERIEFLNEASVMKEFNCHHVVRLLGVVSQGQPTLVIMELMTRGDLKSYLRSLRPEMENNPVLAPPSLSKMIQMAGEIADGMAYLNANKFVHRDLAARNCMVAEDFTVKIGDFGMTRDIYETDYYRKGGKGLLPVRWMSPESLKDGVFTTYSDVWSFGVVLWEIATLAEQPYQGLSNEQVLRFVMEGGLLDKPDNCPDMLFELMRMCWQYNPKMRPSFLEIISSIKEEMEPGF
Assay Info: IGF1R kinase assay
Format: biochemical
Test Parameters: Table 1; read-out: IGF1R IC50
# IC50 annotations

Examples with their reported IC50 follow.
C[C@@H](Cc1cc(F)cc(F)c1F)Nc1cc[nH]c(=O)c1-c1nc2cc3c(cc2[nH]1)CN(CCN(C)C)C3=O [drawing 325]: 100 to 250 nM
Cc1ccsc1CC(C)Nc1cc[nH]c(=O)c1-c1nc2cc3c(cc2[nH]1)C(=O)N(CCCN1CCCC1)C3 (stereo not shown): 100 to 250 nM
Cc1ccsc1C[C@H](C)Nc1cc[nH]c(=O)c1-c1nc2cc3c(cc2[nH]1)C(=O)N(CCN(C)CCS(C)(=O)=O)C3: 250 to 1000 nM

Give IC50; test system IGF1R (Homo sapiens); molecule C[C@@H](Cc1cccs1)Nc1cc[nH]c(=O)c1-c1nc2cc3c(cc2[nH]1)C(=O)N(CCCN1CCCC1)C3 [drawing 259]
250 to 1000 nM
